The origin of these recorded values is patent US20080058399A1.

Assay: Bioavailability in rats after per-oral administration
Settings: rat, in vivo, given as a suspension, read-out: Relative bioavailability
OBSERVATION_TYPE: bioavailability

[ask] // returns reported bioavailability for input CCOc1nc2cccc(C(=O)OC(C)OC(=O)OC3CCCCC3)c2n1Cc1ccc(-c2ccccc2-c2nnn[nH]2)cc1 (stereo not shown)
[reply] 19%

----------
Assay: Bioavailability in rats after per-oral administration
Conditions: rat, in vivo, given in solution, read-out: Relative bioavailability
OBSERVATION_TYPE: bioavailability (%)
Enter your answer as a number in %; do not include the unit.

[ask] Any idea what its bioavailability is? The compound is CCOc1nc2cccc(C(=O)OC(C)OC(=O)OC3CCCCC3)c2n1Cc1ccc(-c2ccccc2-c2nnn[nH]2)cc1 (stereo not shown)
[reply] 50
